For each of the molecules below, state its 2-AG accumulation, % of vehicle control at 0.01 µM.
Target: MGL (Rattus norvegicus)
Construct: one g rat brain was homogenized using a Polytron homogenizer; from tissue; host or cells: rat brain homogenate
Sequence (Q8R431 1-303): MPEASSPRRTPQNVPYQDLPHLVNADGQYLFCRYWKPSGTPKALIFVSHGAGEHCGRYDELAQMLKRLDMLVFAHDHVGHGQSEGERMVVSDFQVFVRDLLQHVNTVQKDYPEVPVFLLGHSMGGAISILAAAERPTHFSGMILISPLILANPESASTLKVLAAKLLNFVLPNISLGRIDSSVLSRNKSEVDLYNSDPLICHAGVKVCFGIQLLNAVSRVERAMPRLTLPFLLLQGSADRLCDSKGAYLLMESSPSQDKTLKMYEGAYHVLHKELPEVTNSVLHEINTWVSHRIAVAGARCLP
Test: 2-AG accumulation assay in rat brain homogenate
Assay type: biochemical
Conditions: rat brain homogenate; compound 0.01 μM; 2-AG accumulation as percent of vehicle; read-out: Rat Brain 2AG % VehCntrl (%) @ 0.01 μM
Give bare numbers, in %.

For orientation, consider the following solved cases.
> print(dat)
                        structure.as.smiles  test.result
1  Cc1cc(-c2cccc(C(F)(F)F)c2)ccc1C(=O)N1CC(N2CCN(C(=O)c3nccs3)CC2)C1          153
2  O=C(c1ccc2nc(-c3ccc(C(F)(F)F)cc3)oc2c1)N1CC(N2CCN(C(=O)c3nccs3)CC2)C1          175
3  O=C(c1nccs1)N1CCN(C2CN(C(=O)c3ccc(-c4cccc(C(F)(F)F)c4)cc3Cl)C2)CC1          180
4  O=C(c1ccc(-c2ccccc2)cc1)N1CC(N2CCN(C(=O)c3nccs3)CC2)C1           99

Quick request: 2-AG accumulation, % of vehicle control at 0.01 µM for each listed item, please.
1. O=C(c1ccccc1)N1CCN(C2CN(C(=O)c3ccc(-c4cccc(C(F)(F)F)c4)cc3)C2)CC1
2. Cc1nc(-c2cccc(Cl)c2)sc1C(=O)N1CC(N2CCN(C(=O)c3nccs3)CC2)C1
3. O=C(c1cscn1)N1CCN(C2CN(C(=O)c3cc4ccc(C(F)(F)F)cc4s3)C2)CC1

1. 123
2. 208
3. 103

====

Molecular target: mutant MGL (Homo sapiens, UniProt Q99685, L169S/L176S)
Sequence (Q99685 1-303 L169S/L176S): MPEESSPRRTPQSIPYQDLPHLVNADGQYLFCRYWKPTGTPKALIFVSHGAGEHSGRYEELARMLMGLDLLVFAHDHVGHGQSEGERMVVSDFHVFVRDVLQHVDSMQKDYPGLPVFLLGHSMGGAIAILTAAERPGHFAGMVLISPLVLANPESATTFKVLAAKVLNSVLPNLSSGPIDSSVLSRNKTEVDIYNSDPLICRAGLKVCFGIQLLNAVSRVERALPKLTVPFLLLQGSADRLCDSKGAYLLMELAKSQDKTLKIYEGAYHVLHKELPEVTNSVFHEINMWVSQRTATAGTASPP
Assay: MGL ThermoFluor assay - mutant
Type: binding
Details: ThermoFluor thermal stability binding assay, read-out: MGL mutant ThermoFluor Kd
parameter: log10 of Kd (log10 of the value in nM)
Reminder: these figures are log10 of reported Kd, in nM before transformation.

Known log10 of Kd results, listed for orientation:
> print(dat)
                        structure.as.smiles    parameter  test.result
1  O=C(c1ccc2c(c1)CCCN2Cc1ccccc1)N1CC(N2CCN(C(=O)c3nccs3)CC2)C1  log10 of Kd         0.00
2  O=C(c1ccccc1)N1CCN(C2CN(C(=O)c3ccc(-c4cccc(C(F)(F)F)c4)cc3F)C2)CC1  log10 of Kd         1.22
3  O=C(c1nccs1)N1CCN(C2CN(C(=O)c3ccc(-c4cccc(C(F)(F)F)c4)cc3F)C2)CC1  log10 of Kd         0.30
4  O=C(c1ccc2nc(-c3ccccc3)oc2c1)N1CCN(C2CN(C(=O)c3nccs3)C2)CC1  log10 of Kd         2.28

Each of the following entries comes with a recorded value; kindly state log10 of Kd for each.
1. Cc1cn(-c2ccccc2)c2ccc(C(=O)N3CC(N4CCN(C(=O)c5nccs5)CC4)C3)cc12
2. O=C(c1ccccc1)N1CCN(C2CN(C(=O)c3ccc(-c4ccc(F)c(Cl)c4)cc3Cl)C2)CC1
3. Cc1nc(-c2cccc(C(F)(F)F)c2)sc1C(=O)N1CC(N2CCN(C(=O)c3nccs3)CC2)C1
4. O=C(c1ccc(OCc2cccnc2)c(Cl)c1)N1CC(N2CCN(C(=O)c3nccs3)CC2)C1
5. O=C(c1ccc2c(ccn2-c2cc(F)c(F)c(F)c2)c1)N1CC(N2CCN(C(=O)c3nccs3)CC2)C1
6. O=C(c1nccs1)N1CCN(C2CN(C(=O)c3nc(-c4ccccc4)oc3C(F)(F)F)C2)CC1

1. 0.00
2. 1.10
3. 0.70
4. 2.15
5. 0.30
6. 2.31

Look at each compound and report its log10 of Kd.
1. O=C(c1ccc2c(cnn2-c2cccc(C(F)(F)F)c2)c1)N1CC(N2CCN(C(=O)c3nccs3)CC2)C1
2. COc1cc(C(=O)N2CC(N3CCN(C(=O)c4nccs4)CC3)C2)ccc1-c1cccc(C(F)(F)F)c1
3. CC(=O)N1CCC(c2ccc(C(=O)N3CC(N4CCN(C(=O)c5ccccc5)CC4)C3)cc2)CC1
4. Cc1cc(-c2ccc(Cl)c(C(F)(F)F)c2)ccc1C(=O)N1CC(N2CCN(C(=O)c3ccccc3)CC2)C1
5. O=C(c1ccc(-c2ccccc2)cc1)N1CC(N2CCN(C(=O)c3c[nH]c4ccccc34)CC2)C1

1. 0.60
2. -0.40
3. 4.09
4. 1.52
5. 3.31

====

Target: purified wild type MGL (wt-MGLL 6H-11-313) (Homo sapiens, UniProt Q99685)
Sequence (Q99685 1-303): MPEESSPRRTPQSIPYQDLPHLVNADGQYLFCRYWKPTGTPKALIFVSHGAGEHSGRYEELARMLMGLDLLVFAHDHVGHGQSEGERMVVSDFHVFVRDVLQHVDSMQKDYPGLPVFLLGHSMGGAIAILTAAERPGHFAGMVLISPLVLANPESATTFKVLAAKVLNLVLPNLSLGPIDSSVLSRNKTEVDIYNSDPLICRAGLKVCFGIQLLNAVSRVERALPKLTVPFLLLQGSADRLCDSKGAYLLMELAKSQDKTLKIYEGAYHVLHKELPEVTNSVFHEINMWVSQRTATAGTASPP
parameter: IC50 (nM)
Numbers only, in nM.

> print(dat)
                                   compound  parameter  units.text  test.result
1  O=C(c1ccc(S(=O)(=O)c2cccc(C(F)(F)F)c2)cc1)N1CC(N2CCN(C(=O)c3cscn3)CC2)C1 [Cpd 738]       IC50          nM          289
2  O=C(c1ccc2c(c1)[nH]c(=O)n2-c1ccccc1)N1CC(N2CCN(C(=O)c3cscn3)CC2)C1 [Cpd 939]       IC50          nM         2360
3  Cc1nc2ccc(Cl)cc2cc1C(=O)N1CC(N2CCN(C(=O)c3nccs3)CC2)C1 [Cpd 835]       IC50          nM         4700

Now for another entry.
Returns the measured IC50 for the input compound. Input: O=C(c1ccc(-n2cc(-c3cc(F)cc(F)c3)cn2)cc1)N1CC(N2CCN(C(=O)c3nccs3)CC2)C1 [Cpd 1123] 19

====

Molecular target: MGL (Rattus norvegicus)
Construct: one g rat brain was homogenized using a Polytron homogenizer; from tissue; host or cells: rat brain homogenate
Assay: 2-AG accumulation assay in rat brain homogenate
Type: biochemical
Settings: rat brain homogenate; compound 1 μM; 2-AG accumulation as percent of vehicle; read-out: Rat Brain 2AG % VehCntrl (%) @ 1 μM
I'd be grateful if you could share measured 2-AG accumulation, % of vehicle control at 1 µM for these entries.
Give bare numbers, in %.

> print(dat)
                                   compound  test.result
1  O=C(c1ccccc1)N1CCN(C2CN(C(=O)c3sc4cc(C(F)(F)F)ccc4c3F)C2)CC1 [Cpd 509]          242
2  Cn1nc(-c2cccc(F)c2)c2cc(C(=O)N3CC(N4CCN(C(=O)c5nccs5)CC4)C3)ccc21 [Cpd 1170]          258
3  O=C(c1ccc(Sc2cccc(Cl)c2)cc1)N1CC(N2CCN(C(=O)c3cscn3)CC2)C1 [Cpd 429]          318
4  O=C(c1ccc(Oc2ccc(Cl)c(Cl)c2)cc1)N1CC(N2CCN(C(=O)c3nccs3)CC2)C1 [Cpd 423]          529
5  O=C(c1ccc2c(ccn2-c2ccc(F)cc2F)c1)N1CC(N2CCN(C(=O)c3ccc[nH]3)CC2)C1 [Cpd 1061]          618
6  O=C(c1nccs1)N1CCN(C2CN(C(=O)c3sc4cc(C(F)(F)F)c(F)cc4c3Cl)C2)CC1 [Cpd 900]          543
7  O=C(c1nccs1)N1CCN(C2CN(C(=O)c3sc4cc(-c5ccc(C(F)(F)F)cc5)ccc4c3F)C2)CC1 [Cpd 1063]          846

Next item in the queue.
Requested read-out 2-AG accumulation, % of vehicle control at 1 µM, target or system MGL (Rattus norvegicus), entry CCCCCCCc1ccc(C(=O)N2CC(N3CCN(C(=O)c4nccs4)CC3)C2)cc1 [Cpd 892] 948
